Field: cytotoxicity at 70.5 h. Provide a value for each of the molecules that follow.
- assay summary: Human HepG2 cell viability assay in 384 well format
- Format: toxicity, cell-based
- Design: dose 125 nL, time 70.5 hour; concentration not given beside the values
- condition parameters: HepG2 cells, read-out: Inhibition
Answers are plain numbers, in %.

Examples with their reported cytotoxicity at 70.5 h follow.
- NCc1cnn(-c2ccccc2C(=O)NCc2ccccc2Cl)c1: -2.58
- Cc1ccccc1CNC(=O)C1CCN(Cc2nccn2C)CC1: -0.376
- CC(C)c1nncn1CCNC(=O)c1ccc(Cl)cc1O: 0.918

State the recorded cytotoxicity at 70.5 h for every item in the following list.
1. CN(C)C(=O)CC1CC2(CCN(Cc3ccoc3)CC2)c2ccccc21 (configuration not stated)
2. CCC1CCCCN1CCNC(=O)N1CCN(Cc2ccon2)CC1 (configuration not stated)

1. -2.19
2. -2.53

State the recorded cytotoxicity at 70.5 h for every item in the following list.
1. O=C1CC(C(=O)NCc2ccccc2Oc2ccccc2F)CCN1 (configuration not stated)
2. COc1ccc(-n2ncc(C(C)NCc3cnc(SC)nc3)c2C)cc1 (configuration not stated)
3. O=C(NCCNC(=O)c1ccc(Cl)cc1)NCCn1cccc1
4. CC(C)N1CCN(C(=O)c2ccccc2NCc2cccnc2)CC1
5. O=C(c1cc[nH]n1)N(Cc1ccc(F)cc1)CC1CC1
6. Cc1cc(=O)[nH]c(NCCNC(=O)CN2CCCCCC2)n1

[-1.83, -3.63, -4.35, -5.19, 0.0679, 15.9]

Please report cytotoxicity at 70.5 h for the following molecule: CS(=O)(=O)NC1CCN(C(=O)CCn2cccn2)CC1 -9.56

----------
Field: cytotoxicity at 70.5 h. Provide a value for each of the compounds that follow.
- assay summary: Human HepG2 cell viability assay in 384 well format
- Assay type: toxicity, cell-based
- Design: dose 125 nL, time 70.5 hour; concentration not given beside the values
- condition parameters: HepG2 cells, read-out: Inhibition
Answers are plain numbers, in %.

Examples with their reported cytotoxicity at 70.5 h follow.
- CNC(=O)CN(C(=O)c1ccccc1)[C@H]1C[C@H]2CCOC[C@H]2C1: -1.15
- CN1CCN(CCCOc2ccccc2CN2C[C@H]3CC[C@H]2C3)CC1: 17.4
- Cc1ccc(N2CCN(CC3CC3)C3(CCN(C(C)C)CC3)C2=O)cn1: -5.52
- CN(C)Cc1cnc2n1CCN(C(=O)Cc1ccsc1)CC2: 8.26
- O=C1CCC2(CCCN(C(=O)c3ncc[nH]3)C2)CN1CCc1c[nH]cn1 (stereo not drawn): 13.6

State the recorded cytotoxicity at 70.5 h for every item in the following list.
1. CCOCCn1nc(C)cc1C(=O)N1CC(C)(C)[C@@](C)(O)C1
2. O=C1CCSCC(C(=O)N2CCCCC2)N1 (stereo not drawn)
3. COc1cccc(N2CC3(CCN(c4cnccn4)C3)CC2=O)c1 (stereo not drawn)
4. COc1ccccc1C(C)NC(=O)NCCC(=O)NC1CCCCC1 (stereo not drawn)
5. COc1ccccc1-n1nc(CC(C)C)nc1CSc1nnc(N)s1

1. -2.57
2. -0.797
3. 13.8
4. -16.1
5. -15.9

----------
- assay summary: Human HepG2 cell viability assay in 384 well format
- Format: toxicity, cell-based
- Set-up: dose 125 nL, time 70.5 hour; concentration not given beside the values
- condition parameters: HepG2 cells, read-out: Inhibition
Field: cytotoxicity at 70.5 h. Provide a value for each of the compounds that follow.
Give bare numbers, in %.

* Cn1cc(C2CCCN2Cc2csc(C(C)(C)C)n2)cn1 (configuration not stated) | 25.7

State the recorded cytotoxicity at 70.5 h for every item in the following list.
1. CC(Nc1ccc(CC(=O)N(C)C)cc1)C(=O)N(C)CCC#N (configuration not stated)
2. CN(C)c1nc2c(c(=O)[nH]1)Cc1ccccc1OC2
3. O=C(O)[C@H]1CCCN1CCOc1cccc(Cl)c1
4. CCc1nnc2n1CCN(C(C(=O)N(CC)CC)c1ccccc1)C2 (configuration not stated)
5. O=S(=O)(NC1CCCCC12OCCO2)c1cc(Cl)cc(Cl)c1 (configuration not stated)
6. CNC(=O)C1CCC(NC(=O)N(C)Cc2c(C)noc2C)CC1 (configuration not stated)
7. Cc1cc(CN2CCN(C(=O)NCc3nc(C)cs3)CC2)on1
8. CC1c2ncc(CN3CCN(C)CC3)n2CCN1Cc1ccccn1 (configuration not stated)

[-12.3, 31.5, -5.33, -12.7, -3.17, 31.6, -11.7, -0.798]

State the recorded cytotoxicity at 70.5 h for every item in the following list.
1. CC(C)=CCCC(C)CN1CCC(n2cc(C(C)(C)O)nn2)CC1 (configuration not stated)
2. O=C(C1CCCN1c1ncnc2ccsc12)N1CCSCC1 (configuration not stated)
3. O=C1Nc2ccccc2CNC12CCN(CC1CCCC1)CC2
4. O=C(NC1(c2cccc(F)c2)CCOCC1)c1cc[nH]n1

1. -8.45
2. -9.24
3. -7.54
4. -4.33
